Target: T1, human IL-1α (human, UniProt P01583 113-271)
T1 sequence (looked up): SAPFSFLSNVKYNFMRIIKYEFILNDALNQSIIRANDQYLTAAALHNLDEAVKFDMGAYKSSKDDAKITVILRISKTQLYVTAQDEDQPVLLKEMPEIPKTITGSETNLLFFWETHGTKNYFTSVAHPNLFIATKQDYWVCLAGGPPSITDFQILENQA
Assay: cell-based or functional assay
MEASUREMENT_TYPE: MRC5 ND50 (nM)
Numbers only, in nM.

ABT1-141-47 (other) VL: DIQMTQSPSSLSASVGDRVTITCRANQWIQKQLAWYQQKPGKAPKLLIYSSSHLQSGVPSRFSGSGSGTDFTLTISSLQPQDFATYYCQQHLRVPMTFGQGTKVEIKR | 1
ABT1-141-76 (other) VL: DIQMTQSPSSLSASVGDRVTITCRANQWIQKQLAWYQQKPGKAPKLLIYSSSHLQSGVPSRFSGSGSGTDFTLTISSLQPEDFATYYCQQHLRVPMTFGQGTKVEIKR | 1
ABT1-141-25 (other) VL: DIQMTQSPSSLSASVGDRVTITCRASQWIQKQLAWYQQKPGKAPKLLIYSSSYLQSGVPSRFSGSGSGTDFTLTISSLQPEDFATYYCQQHLRVPMTFGQGTKVEIKR | 5

Any idea what its MRC5 ND50 is? The binder is ABT1-141 (other, dAb, Vκ, to IL-1α; also called dAb ABT1-141) VL: DIQMTQSPSSLSASVGDRVTITCRASQWIQKQLAWYQQKPGKAPKLLIYSSSYLQSGVPSRFSGSGSGTDFTLTISSLQPEDFATYYCQQHLRVPFTFGQGTKVEIKR 70

From: patent US20090291081A1
